Documented IC50 across a set of molecules
tested on: YAP-TEAD; assay: Nano luciferase method to detect YAP-TEAD inhibitor activity (293T cells transfected with pGL3B-8×GTiiC-nLuc-CMV-fLuc); type: cell-based; conditions: Homo sapiens, HEK-293T; transfected 293T cells, 48 hours incubation; read-out: Nano Luciferas detection (IC50)

Sample answers from the record:
• C=CC(=O)N1CC(c2cccnc2Nc2ccc(C)cc2)C1 = ≤ 100 nM
• C=CC(=O)N1CC(c2cccnc2Nc2ccc(S(F)(F)(F)(F)F)cc2)C1 = ≤ 100 nM
• C=CC(=O)N1CCC(c2cc(-c3cc[nH]n3)cnc2Nc2ccc(C(F)(F)F)cc2)CC1 = ≤ 100 nM

Entry C=C(F)C(=O)N1CCC(c2cccnc2Oc2ccc(C(F)(F)F)cc2)C(F)(F)C1 (stereo not drawn) has what IC50? 100 to 1000 nM

Please report the recorded IC50 for C=CC(=O)N1CC=C(c2cccnc2Nc2ccc(S(F)(F)(F)(F)F)cc2)C1 . ≤ 100 nM

Return reported IC50; argument: C=CC(=O)N1CCC(c2cc(-c3cnn(C)c3)cnc2Nc2ccc(C(F)(F)F)cc2)CC1 ≤ 100 nM

IC50 for C=CC(=O)N1CCC(c2ccc(C)nc2Nc2ccc(C(F)(F)F)cc2)CC1 ? ≤ 100 nM

Would you kindly share the measured IC50 for C=CC(=O)N1CCC(c2cc(Cl)cnc2Nc2ccc(C(F)(F)F)cc2)CC1 ? ≤ 100 nM

So what does the record say about IC50 for C=CC(=O)N1CCC(c2cc(-c3ccnn3C)cnc2Nc2ccc(C(F)(F)F)cc2)CC1 ? 100 to 1000 nM

----------
// reported IC50 per item
test system: YAP-TEAD; test: Nano luciferase method to detect YAP-TEAD inhibitor activity (293T cells transfected with pGL3B-8×GTiiC-nLuc-CMV-fLuc); type: cell-based; settings: Homo sapiens, HEK-293T; transfected 293T cells, 48 hours incubation; read-out: Nano Luciferas detection (IC50)

Examples with answers:
- C=CC(=O)N1CCC(c2cc(-c3ccsc3)cnc2Nc2ccc(C(F)(F)F)cc2)CC1 [Compound T98]: 100 to 1000 nM
- C=CC(=O)N1CC=C(c2nccnc2Nc2ccc(C(F)(F)F)cc2)C1 [Compound T19]: ≤ 100 nM
- C=CC(=O)N1CCC(c2cc(OC)cnc2Nc2ccc(C(F)(F)F)cc2)CC1 [Compound T34]: 100 to 1000 nM
- C=CC(=O)N1CCC(c2cc3ccccc3nc2Nc2ccc(C(F)(F)F)cc2)CC1 [Compound T65]: 100 to 1000 nM
- C=CC(=O)N1CCC(c2cc(C)cnc2Nc2ccc(C(F)(F)F)cc2)CC1 [Compound T22]: ≤ 100 nM

Any idea what IC50 came out for C=CC(=O)N1CCC(c2cccnc2Oc2ccc(C(F)(F)F)cc2)CC1 [Compound T59] on YAP-TEAD? ≤ 100 nM

Provide value of IC50 for this record tested with YAP-TEAD: C=CC(=O)N1CCC(c2nccnc2Oc2ccc(C(F)(F)F)cc2)CC1 [Compound T58] ≤ 100 nM

Any idea what IC50 came out for C=CC(=O)N1CCC(c2cc(C#N)cnc2Oc2ccc(C(F)(F)F)cc2)CC1 [Compound T74] on YAP-TEAD? 100 to 1000 nM

----------
assay: Pharmacokinetic study of the drug, oral administration to rats (plasma, cerebrospinal fluid, brain tissue); type: in vivo; conditions: plasma, SD rat, 10 mg/kg, single
Please respond with 1 (yes) when measured AUC(0-t) is strictly beneath 5 µg·h/mL, and with 0 (no) in all other cases.

Consider the following illustrative entries.
* C=CC(=O)N1CCC(c2c(Nc3ccc(C(F)(F)F)cc3)ncc3ccccc23)CC1 [Compound T37] | 0 (no)
* C=CC(=O)N1CCC(c2cc(C)cnc2Nc2ccc(C(F)(F)F)cc2)CC1 [Compound T22] | 1 (yes)
* C=CC(=O)N1CCC(c2ccc(Cl)nc2Nc2ccc(C(F)(F)F)cc2)CC1 [Compound T27] | 0 (no)
* C=CC(=O)N1CCC(c2nccnc2Nc2ccc(C(F)(F)F)cc2)CC1 [Compound T16] | 0 (no)
* C=CC(=O)N1CCC(c2cccnc2Nc2ccc(C(F)(F)F)cc2)CC1 [Compound T1] | 0 (no)

Is the reported AUC(0-t) for C=CC(=O)N1CCC(c2cc(-c3cnn(C)c3)cnc2Nc2ccc(C(F)(F)F)cc2)CC1 [Compound T61] strictly below 5 µg·h/mL? 0 (no)

Hi there! Is AUC(0-t) for C=CC(=O)N1CCC(c2cc(Cl)cnc2Oc2ccc(C(F)(F)F)cc2)CC1 [Compound T40] below 5 µg·h/mL, do you know? 0 (no)

Quick check: AUC(0-t) of C=CC(=O)N1CCC(c2cc(-c3cc[nH]n3)cnc2Nc2ccc(C(F)(F)F)cc2)CC1 [Compound T92] under 5 µg·h/mL? 1 (yes)

Quick check: AUC(0-t) of C=CC(=O)N1CCC(c2nccnc2Oc2ccc(C(F)(F)F)cc2)CC1 [Compound T58] under 5 µg·h/mL? 0 (no)

Determine if C=CC(=O)N1CCC(c2cccnc2Oc2ccc(C(F)(F)F)cc2)CC1 [Compound T59] shows AUC(0-t) strictly lower than 5 µg·h/mL. 1 (yes)

----------
Experiment: Pharmacokinetic study of the drug, oral administration to rats (plasma, cerebrospinal fluid, brain tissue)
Type: in vivo
Details: in vivo, SD rat, 10 mg/kg, single, read-out: Kpuu Value
Source text: Experimental Example 3 Pharmacokinetic Study of the Drug Oral Administration Solvent: 5% DMSO+10% Solutol HS15+85% Saline […] Before administration, checked the state of the administered preparation, ensured the homogeneity of the preparation by vortexing, stirring or oscillating, and calculated the theoretical volume of the administered drug for each SD rat in each group according to the following formula. […]
measure_name: Kp uu
// return just the number, without any unit appended

• C=CC(=O)N1CCC(c2cc(-c3cnn(C)c3)cnc2Nc2ccc(C(F)(F)F)cc2)CC1 [Compound T61] = 0.038
• C=CC(=O)N1CCC(c2nccnc2Nc2ccc(C(F)(F)F)cc2)CC1 [Compound T16] = 0.518
• C=CC(=O)N1CCC(c2nccnc2Oc2ccc(C(F)(F)F)cc2)CC1 [Compound T58] = 0.269
• C=CC(=O)N1CCC(c2cccnc2Oc2ccc(C(F)(F)F)cc2)CC1 [Compound T59] = 0.765

Now look at this entry.
Fill in: Kp uu of C=CC(=O)N1CCC(c2cc(Cl)cnc2Oc2ccc(C(F)(F)F)cc2)CC1 [Compound T40] is ___ 0.286

----------
experiment: Pharmacokinetic study of the drug, oral administration to rats (plasma, cerebrospinal fluid, brain tissue); type: in vivo; conditions: SD rat, 10 mg/kg, single, brain tissue (post perfusion) and plasma, read-out: B/P value
Hi! Just check whether Kp is below 1. Below gives yes (1), equal or above gives no (0).

Past entries and their recorded results:
• C=CC(=O)N1CCC(c2cc(Cl)cnc2Oc2ccc(C(F)(F)F)cc2)CC1 [Compound T40] = no (0)
• C=CC(=O)N1CCC(c2nccnc2Oc2ccc(C(F)(F)F)cc2)CC1 [Compound T58] = no (0)
• C=CC(=O)N1CCC(c2cccnc2Oc2ccc(C(F)(F)F)cc2)CC1 [Compound T59] = no (0)
• C=CC(=O)N1CCC(c2nccnc2Nc2ccc(C(F)(F)F)cc2)CC1 [Compound T16] = no (0)

// next entry
Quick check: does C=CC(=O)N1CCC(c2cc(-c3cnn(C)c3)cnc2Nc2ccc(C(F)(F)F)cc2)CC1 [Compound T61] have Kp under 1? yes (1)

----------
Let's look at some molecules and their measured pIC50.
tested on: YAP-TEAD; experiment: Nano luciferase method to detect YAP-TEAD inhibitor activity (293T cells transfected with pGL3B-8×GTiiC-nLuc-CMV-fLuc); assay type: cell-based; conditions: Homo sapiens, HEK-293T; transfected 293T cells, 48 hours incubation; read-out: Nano Luciferas detection (IC50)
pIC50: −log10 of the molar value.

Sample answers from the record:
• CC#CC(=O)N1CCC(c2cccnc2Nc2ccc(C(F)(F)F)cc2)CC1 [Compound T50] = 5.30 to 6.00
• C=CC(=O)N1CCC(c2cc(-c3cn(C)cn3)cnc2Nc2ccc(C(F)(F)F)cc2)CC1 [Compound T62] = ≥ 7.00

Hi! What's the reported pIC50 for C=CC(=O)N1CCC(c2cc(Cl)cnc2Oc2ccc(C(F)(F)F)cc2)CC1 [Compound T40] on YAP-TEAD? ≥ 7.00

Notebook: pull reported pIC50 for YAP-TEAD, entry C=CC(=O)N1CCC(c2cccnc2Oc2ccc(C(F)(F)F)cc2)C(F)(F)C1 (centres unmarked) [Compound T77] ≥ 7.00

Item C=CC(=O)N1CCC(c2c(OC)ccnc2Nc2ccc(C(F)(F)F)cc2)CC1 [Compound T35] with YAP-TEAD - pIC50? 6.00 to 7.00

----------
Assay: Pharmacokinetic study of the drug, oral administration to rats (plasma, cerebrospinal fluid, brain tissue)
Assay type: in vivo
Conditions: plasma, SD rat, 10 mg/kg, single
Description: Experimental Example 3 Pharmacokinetic Study of the Drug Oral Administration Solvent: 5% DMSO+10% Solutol HS15+85% Saline […] Before administration, checked the state of the administered preparation, ensured the homogeneity of the preparation by vortexing, stirring or oscillating, and calculated the theoretical volume of the administered drug for each SD rat in each group according to the following formula. […]
measure_name: Tmax (h)
Numbers only; they are read as h.

Worked examples, 2 compounds total:
• C=CC(=O)N1CCC(c2cc(-c3cc[nH]n3)cnc2Nc2ccc(C(F)(F)F)cc2)CC1 [Compound T92] = 2.67
• C=CC(=O)N1CCC(c2cc(-c3cnn(C)c3)cnc2Nc2ccc(C(F)(F)F)cc2)CC1 [Compound T61] = 2.67

Report Tmax for C=CC(=O)N1CCC(c2c(Nc3ccc(C(F)(F)F)cc3)ncc3ccccc23)CC1 [Compound T37] please. 4.67

Entry C=CC(=O)N1CCC(c2cc(C)cnc2Nc2ccc(C(F)(F)F)cc2)CC1 [Compound T22] : reported Tmax = ? 2

Fill in: Tmax of C=CC(=O)N1CCC(c2cccnc2Oc2ccc(C(F)(F)F)cc2)CC1 [Compound T59] is ___ 1.5

Could you tell me which Tmax is on file for C=CC(=O)N1CCC(c2nccnc2Nc2ccc(C(F)(F)F)cc2)CC1 [Compound T16] ? 2.67

Can you share its Tmax? I mean this compound: C=CC(=O)N1CCC(c2nccnc2Oc2ccc(C(F)(F)F)cc2)CC1 [Compound T58] 2

Name the reported Tmax value associated with the compound C=CC(=O)N1CCC(c2cc(Cl)cnc2Oc2ccc(C(F)(F)F)cc2)CC1 [Compound T40] 1.67

Tmax for C=CC(=O)N1CCC(c2ccc(Cl)nc2Nc2ccc(C(F)(F)F)cc2)CC1 [Compound T27] ? 3.33

Returns the measured Tmax for the input compound. Input: C=CC(=O)N1CCC(c2cccnc2Nc2ccc(C(F)(F)F)cc2)CC1 [Compound T1] 1.33
